target: DNA topoisomerase 1 (Homo sapiens) (UniProt P11387); experiment: Potency index, ratio of compound activity to CPT activity for inhibition of recombinant human topoisomerase 1 at 20 uM
Sequence (P11387 whole entry): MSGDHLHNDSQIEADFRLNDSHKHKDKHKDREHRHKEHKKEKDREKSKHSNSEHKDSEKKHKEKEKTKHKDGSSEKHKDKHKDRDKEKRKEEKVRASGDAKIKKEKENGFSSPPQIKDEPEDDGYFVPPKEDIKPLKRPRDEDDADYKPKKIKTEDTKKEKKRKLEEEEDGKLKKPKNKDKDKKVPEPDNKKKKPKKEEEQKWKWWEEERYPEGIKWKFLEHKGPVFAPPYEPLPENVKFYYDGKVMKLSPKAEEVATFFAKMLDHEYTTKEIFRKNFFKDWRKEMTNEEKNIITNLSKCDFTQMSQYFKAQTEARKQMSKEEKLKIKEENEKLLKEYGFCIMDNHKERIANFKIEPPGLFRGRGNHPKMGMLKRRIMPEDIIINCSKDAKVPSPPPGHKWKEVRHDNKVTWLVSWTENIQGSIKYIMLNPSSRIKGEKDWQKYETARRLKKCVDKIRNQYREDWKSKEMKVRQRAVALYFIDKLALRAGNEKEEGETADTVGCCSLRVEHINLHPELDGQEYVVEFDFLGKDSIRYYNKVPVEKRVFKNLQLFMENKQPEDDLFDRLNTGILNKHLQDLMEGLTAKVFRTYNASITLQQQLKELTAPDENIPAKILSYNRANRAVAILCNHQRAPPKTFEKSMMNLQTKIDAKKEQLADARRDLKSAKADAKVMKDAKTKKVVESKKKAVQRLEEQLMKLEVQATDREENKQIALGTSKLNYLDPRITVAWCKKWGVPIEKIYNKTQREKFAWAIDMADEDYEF
endpoint: Ratio

> print(dat)
                           structure.string  endpoint   val
1     COc1cccc(-c2nc3cc(C)ccc3c(=O)[nH]2)c1     Ratio   2.6
2      Cc1cccc(-c2nc3cc(C)ccc3c(=O)[nH]2)c1     Ratio  1.83
3  O=c1[nH]c(-c2cccc3ccccc23)nc2ccc(N3CCOCC3)cc12     Ratio  0.62
4  Cc1ccc2nc(-c3cccc(C(F)(F)F)c3)[nH]c(=O)c2c1     Ratio  0.13
5      Cc1cccc(-c2nc3ccc(C)cc3c(=O)[nH]2)c1     Ratio  0.39
6    Cc1ccc2nc(-c3ccccc3N(C)C)[nH]c(=O)c2c1     Ratio  1.22

Source of measurements: ChEMBL document CHEMBL3632492
